Assay: Protein binding, rat
Assay type: in vitro ADME
assay_endpoint: fraction unbound

So what does the record say about fraction unbound for CCCSc1nc(N[C@@H]2C[C@H]2c2ccc(F)c(F)c2)c2nnn([C@@H]3C[C@H](OCCO)[C@@H](O)[C@H]3O)c2n1 ?
0.01

* * *

Assay: Protein binding, human
Assay type: in vitro ADME
assay_endpoint: fraction unbound
Format: numeric value only, no unit, no commentary.

So what does the record say about fraction unbound for CCCSc1nc(N[C@@H]2C[C@H]2c2ccc(F)c(F)c2)c2nnn([C@@H]3C[C@H](OCCO)[C@@H](O)[C@H]3O)c2n1 ?
0.008

* * *

Experiment: Exposure in rat micronucleus in vivo assay
Details: male, Alderly Park (Wistar derived), 2000 mg/kg
assay_endpoint: AUC

So what does the record say about AUC for CCCSc1nc(N[C@@H]2C[C@H]2c2ccc(F)c(F)c2)c2nnn([C@@H]3C[C@H](OCCO)[C@@H](O)[C@H]3O)c2n1 [Ticagrelor] ?
794 to 1240 µg·h/mL

Recorded values, source paper PMC5598522.
